Quick reference for logD among some compounds
Test: Lipophilicity, log D of the compound
Type: physicochemical
Conditions: octanol/water
Please state the value as a number alone, without comment.

Please review the entries below; each comes with its answer.
smiles_entry=COC[C@H](C)Oc1cc(Oc2ccc(C(=O)N(C)C)cc2)cc(C(=O)Nc2cc[nH]n2)c1 readout_value=1.8
smiles_entry=C[C@@H](CO)Oc1cc(Oc2ccc(C(=O)N3CCC3)cc2)cc(C(=O)Nc2ccn(C)n2)c1 readout_value=1.8

Okay, next one:
So what does the record say about logD for `C[C@@H](CO)Oc1cc(Oc2ccc(C(=O)N(C)C)cc2)cc(C(=O)Nc2ccn(C)n2)c1` ?
1.7
